Molecular target: recombinant human GR (Homo sapiens)
Test: Human Glucocorticoid Receptor (GR) Assay (fluorescence polarization, Panvera/Invitrogen kit)
Settings: GS Red tracer, incubated at room temperature for 2 hours, 100% control 10 μM Dexamethasone, read-out: GRhuFL_FP_v2 (GR-binders) IC50
Procedure: Human Glucocorticoid Receptor (GR) Assay The assay is based on a commercial kit from Panvera/Invitrogen (Part number P2893). The assay technology is fluorescence polarization. […] Test compounds (1 μL) and controls (1 μL) in 100% DMSO were added to black polystyrene 384-well plates (Greiner low volume black flat-bottom, part number 784076). […] was 100% DMSO and 100% control was 10 μM Dexamethasone. […] The IC50 values were calculated using XLfit model 205.
property_measured: IC50 (nM)
Just the number in nM, nothing appended.

In the examples that follow, each entry is paired with its recorded IC50.
Qu. Given the entry Cc1cc(C)c(S(=O)(=O)N[C@@H](C)COc2ncnc3ccccc23)c(C)c1 [Example 82] , report its measured IC50.
Ans. 3400

Qu. For Cc1cc(C)c(S(=O)(=O)N[C@@H](C)COc2cccc3ncccc23)c(C)c1 [Example 79] then?
Ans. 140

Qu. For Cc1cc(C)c(S(=O)(=O)N[C@@H](C)CNc2c(C)ccc3ncccc23)c(C)c1 [Example 124] then?
Ans. 20

Others:
Qu. Given the entry Cc1csc(NC(=O)CN(CC(C)C)S(=O)(=O)c2cccc3ccccc23)n1 [Example 7] , report its measured IC50.
Ans. 700

Qu. For Cc1cc(Br)ccc1S(=O)(=O)NC(C)CCc1ccccc1 (centres unmarked) [Example 19] then?
Ans. 540

Qu. For Cc1cc(C)c(S(=O)(=O)NC(C)CCc2ccccc2)c(C)c1 (centres unmarked) [Example 32] then?
Ans. 90

Qu. For Cc1nn(-c2ccccc2)c(C)c1S(=O)(=O)N[C@@H](C)COc1cccc2cnccc12 [Example 160] then?
Ans. 96

Qu. For Cc1cc(C)c(S(=O)(=O)N[C@@H](C)COc2cccc3cnccc23)c(C)c1 [Example 77] then?
Ans. 17

----------
Target: recombinant human GR (Homo sapiens, UniProt P04150)
Assay: Human Glucocorticoid Receptor (GR) Assay (fluorescence polarization, Panvera/Invitrogen kit)
Settings: GS Red tracer, incubated at room temperature for 2 hours, 100% control 10 μM Dexamethasone, read-out: GRhuFL_FP_v2 (GR-binders) IC50
IC50 overview
Just the number in nM, nothing appended.

In the examples that follow, each entry is paired with its recorded IC50.
Qu. Given the entry O=[N+]([O-])c1cc(Cl)ccc1NCCCNS(=O)(=O)c1ccc2ccccc2c1 [Example 5] , report its measured IC50.
Ans. 640

Qu. For CCNc1nc(NC(C)C)nc(OCCNS(=O)(=O)c2cc(C)ccc2C)n1 [Example 15] then?
Ans. 6300

Others:
Qu. Given the entry CC(C)c1cc(C(C)C)c(S(=O)(=O)NCc2ccncc2)c(C(C)C)c1 [Example 10] , report its measured IC50.
Ans. 600

----------
Target: recombinant human GR (Homo sapiens, UniProt P04150)
Assay: Human Glucocorticoid Receptor (GR) Assay (fluorescence polarization, Panvera/Invitrogen kit)
Settings: GS Red tracer, incubated at room temperature for 2 hours, 100% control 10 μM Dexamethasone, read-out: GRhuFL_FP_v2 (GR-binders) IC50
property_measured: log10(IC50) (log10 of the value in µM)
Kindly note that the scale is log10 and the underlying IC50 is in µM.

Qu. Given the entry Cc1cc(C)c(S(=O)(=O)N[C@@H](C)CNc2ccc(C)c3ncccc23)c(C)c1 [Example 123] , report its measured log10(IC50).
Ans. -1.74

Qu. For Cc1cc(NC(=O)CN(C2CCCCC2)S(=O)(=O)c2cccc3ccccc23)no1 [Example 12] then?
Ans. 0.78

Qu. For CCOc1ccc(S(=O)(=O)NCCc2ccc(S(N)(=O)=O)cc2)c2cccnc12 [Example 6] then?
Ans. -0.15

Qu. For CCCN(c1nc(C)c(Cl)c(OC)n1)S(=O)(=O)c1ccc(C)cc1 [Example 9] then?
Ans. 0.20

Qu. For Cc1cc(C)c(S(=O)(=O)N[C@@H](C)COc2cccc3[nH]ccc23)c(C)c1 [Example 78] then?
Ans. -1.64

Qu. For Cc1cc(C)c(S(=O)(=O)N[C@@H](C)COc2ccc3c(c2)OCO3)c(C)c1 [Example 80] then?
Ans. -0.64

Others:
Qu. Given the entry Cc1cc(C)c(S(=O)(=O)N[C@@H](C)CNc2cccc3[nH]ncc23)c(C)c1 [Example 125] , report its measured log10(IC50).
Ans. -1.38

Qu. For Cc1cc(C)c(S(=O)(=O)N[C@@H](C)COc2ccnc3ccccc23)c(C)c1 [Example 81] then?
Ans. -0.43

----------
pIC50 overview
Target: recombinant human GR (Homo sapiens)
Sequence (P04150 1-777): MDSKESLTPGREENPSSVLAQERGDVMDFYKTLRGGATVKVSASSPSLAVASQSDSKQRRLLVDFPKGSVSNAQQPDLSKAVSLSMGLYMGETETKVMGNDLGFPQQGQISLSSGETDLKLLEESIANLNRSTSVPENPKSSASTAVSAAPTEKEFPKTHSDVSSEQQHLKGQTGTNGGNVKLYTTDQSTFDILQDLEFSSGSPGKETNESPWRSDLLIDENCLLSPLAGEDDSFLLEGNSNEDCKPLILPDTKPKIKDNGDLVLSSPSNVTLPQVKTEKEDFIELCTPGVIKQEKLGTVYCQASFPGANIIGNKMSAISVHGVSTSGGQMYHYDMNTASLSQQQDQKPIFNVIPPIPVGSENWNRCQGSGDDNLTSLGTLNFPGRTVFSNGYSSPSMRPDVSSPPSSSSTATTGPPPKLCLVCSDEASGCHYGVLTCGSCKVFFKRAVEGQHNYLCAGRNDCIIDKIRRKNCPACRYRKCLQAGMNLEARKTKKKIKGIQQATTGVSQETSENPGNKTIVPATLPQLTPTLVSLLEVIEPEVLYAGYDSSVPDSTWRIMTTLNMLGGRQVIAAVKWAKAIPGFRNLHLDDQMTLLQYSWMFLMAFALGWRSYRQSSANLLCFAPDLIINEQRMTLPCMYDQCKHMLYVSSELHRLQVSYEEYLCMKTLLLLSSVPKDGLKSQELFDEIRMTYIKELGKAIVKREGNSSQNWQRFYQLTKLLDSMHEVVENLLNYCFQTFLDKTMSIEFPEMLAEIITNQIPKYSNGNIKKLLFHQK
Test: Human Glucocorticoid Receptor (GR) Assay (fluorescence polarization, Panvera/Invitrogen kit)
Conditions: GS Red tracer, incubated at room temperature for 2 hours, 100% control 10 μM Dexamethasone, read-out: GRhuFL_FP_v2 (GR-binders) IC50
The quantity pIC50 is defined as the negative base-10 logarithm of the molar concentration.

In the examples that follow, each entry is paired with its recorded pIC50.
Qu. Given the entry Cc1cc(C)c(S(=O)(=O)N[C@@H](C)COc2cccc3cccnc23)c(C)c1 , report its measured pIC50.
Ans. 5.05

Qu. For Cc1cccc(C)c1OCC(C)NS(=O)(=O)c1cccc([N+](=O)[O-])c1 (centres unmarked) then?
Ans. 5.52

Qu. For Cc1cc(C)c(S(=O)(=O)N[C@@H](C)CNc2cccc3ncccc23)c(C)c1 then?
Ans. 7.12

Qu. For Cc1cc(NC(=O)CN(CC2CCCCC2)S(=O)(=O)c2cccc3ccccc23)no1 then?
Ans. 5.66

Qu. For Cc1cc(C)c(S(=O)(=O)NCCc2c(C)[nH]c3ccc(C)cc23)c(C)c1 then?
Ans. 5.92

Qu. For CCCCOc1ccc(NS(=O)(=O)c2cccc3c(N(C)C)cccc23)cn1 then?
Ans. 5.36

Qu. For C=CCN(c1nc(C)c(Cl)c(OC)n1)S(=O)(=O)c1ccc(C)cc1 then?
Ans. 5.77

Consider the record given below.
Qu. Given the entry COC(=O)c1c(C)oc2ccc(N(C(=O)c3ccncc3)S(=O)(=O)c3ccc(C)cc3C)cc12 , report its measured pIC50.
Ans. 5.66

Cited source: patent US20090093485A1
